Measured Classification, listed per entry for reference.
- target: GST-BAI-1 Associated Protein PDZ domain 6 (Homo sapiens (Human)), Q96QZ7
- Sequence (Q96QZ7 1143-1233): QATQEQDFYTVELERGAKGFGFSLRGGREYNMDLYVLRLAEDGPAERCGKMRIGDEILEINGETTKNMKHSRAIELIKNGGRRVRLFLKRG
- assay.overview: G' assay; note: key of the grades not given here
quantity: Classification (A450 class)

1. ILNSIQVMRAQMNQIQSVEV (modifications not checked) [ephrin B2] : 2
2. ELLQFCRTPNPALKNGQYWV (modifications not checked) [CSPG4 (chondroitin sulfae proteoglycan 4, melanoma-associated)] : 4
3. QISPGGLEPPSEKHFRETEV (modifications not checked) [TAX] : 1
4. LASKSAEEGKQIPDSLSTDL (modifications not checked) [DOCK2] : 1
5. QATSRNGHSARQHVVADTEL (modifications not checked) [CD34] : 1
6. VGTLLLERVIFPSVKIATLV (modifications not checked) [AdenoE4 typ9] : 1
